For each of the compounds below, state its melting point.
Numbers only, in °C.

Here's what some known entries look like.
>>> readout_value("CCCCCCn1cc2c(=O)n(CC3CCCCC3)nc-2c2ccccc21")
193
>>> readout_value("CCCCn1cc2c(=O)n(CC3CCCCC3)nc-2c2ccccc21")
216

Exercise: Name the recorded melting point for O=c1c2cn(CCCC(F)(F)F)c3ccccc3c-2nn1CC1CCCCC1 .
Solution: 224

----------
- MEASURED ON: hCB1 (Homo sapiens, UniProt P21554)
- Sequence (P21554 whole entry): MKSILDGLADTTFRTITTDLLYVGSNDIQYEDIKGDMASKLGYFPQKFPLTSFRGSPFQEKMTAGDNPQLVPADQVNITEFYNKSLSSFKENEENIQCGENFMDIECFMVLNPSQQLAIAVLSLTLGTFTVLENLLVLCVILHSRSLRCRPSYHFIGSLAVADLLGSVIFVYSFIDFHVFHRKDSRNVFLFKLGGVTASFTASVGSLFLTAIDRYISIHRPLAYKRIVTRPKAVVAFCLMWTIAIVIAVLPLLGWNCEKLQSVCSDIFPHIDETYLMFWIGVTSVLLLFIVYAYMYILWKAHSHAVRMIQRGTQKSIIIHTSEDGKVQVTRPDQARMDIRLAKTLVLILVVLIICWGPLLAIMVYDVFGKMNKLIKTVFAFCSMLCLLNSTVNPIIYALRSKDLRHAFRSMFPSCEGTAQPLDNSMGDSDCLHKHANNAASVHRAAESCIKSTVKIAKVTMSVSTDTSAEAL
- EXPERIMENTAL PROTOCOL: Binding affinity hCB1, [3H]-CP-55,940 displacement
- TEST CONDITIONS: Table 2; radioligand [3H]-CP-55,940 0.5 nM; read-out: Binding affinity hCB1 Ki
PARAMETER: Ki

>>> readout_value("CCCCCn1cc2c(=O)[nH]nc-2c2ccccc21")
"> 3 µM"

Exercise: Name the recorded Ki for CCCCCn1cc2c(=O)n(CC3CC3)nc-2c2ccccc21 .
Solution: > 3 µM
